# PBM binding z-score listing for each entry below
Test system: VDR homodimer (NR concentration 270 nM)
Experiment: PBM binding z-score (relative to random genomic background probes); higher = stronger binding; sequences stand for … in GC…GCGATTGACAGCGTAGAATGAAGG
Keep it simple and answer with nothing but the number.

Solved cases below.
CAAACTAGGTCAGCGGAAGGTCAAAGTCCGCATG
2.6
CAAACTAGGTCACCGGAAGGTCAAACTCCGCATG
4.04

Then this sequence:
Documented PBM binding z-score of CCTACTGGGCCAAGGTCATTGATCAGTCAAAGCA : 2.15

###

Tested on: LXRb:RXRa (NR concentration 270 nM, RXRa partner concentration 90 nM)
Experiment: PBM binding z-score (relative to random genomic background probes); higher = stronger binding; sequences stand for … in GC…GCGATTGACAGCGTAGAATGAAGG
PBM binding z-score vs 3: at or above is Met, below is Not met.

Illustrative cases are given below, each with its answer.
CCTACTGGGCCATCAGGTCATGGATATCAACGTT
Not met
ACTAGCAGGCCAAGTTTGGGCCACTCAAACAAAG
Not met
CGTACGAGGGCATGAGTTGATAGCAAATGCCGAT
Not met
GCTAGTTGGACAGTAAAAGGTCACACACCGGTCG
Met
CCTCCTAGGTCAATGGTCAGCTAAAGCAGCTCGC
Not met
CAAACTAGGTCAAAGGTCGAAGTCGAGCCAACCA
Met

Challenge: Please indicate if the recorded PBM binding z-score for GGAACGAGGGCCAAGTTGATAGCATCTGTCGACG meets or exceeds 3.
Response given: Not met

Challenge: Please indicate if the recorded PBM binding z-score for ATACCAAGGGGATCGTGAGGTCGTTGATACTAAC meets or exceeds 3.
Response given: Not met

Challenge: Please indicate if the recorded PBM binding z-score for CCGAGTAGGTTATGGGGCGTTCAGGCAACGGTGA meets or exceeds 3.
Response given: Not met

Challenge: Please indicate if the recorded PBM binding z-score for CCTCCTGGGCCACGAAAGGTCATTGATTCAGTGA meets or exceeds 3.
Response given: Met

Challenge: Please indicate if the recorded PBM binding z-score for CCTCGGAGGACAACAGGAGGCCAGAGCTGCCAGA meets or exceeds 3.
Response given: Not met

Challenge: Please indicate if the recorded PBM binding z-score for CAAACTAGGTCGCGAAAGGTCAAAGTCGAATGAC meets or exceeds 3.
Response given: Met

Challenge: Please indicate if the recorded PBM binding z-score for GCTCGGAGGAAAAGGTCAGAGCTTTGTCCGTAGA meets or exceeds 3.
Response given: Not met

Challenge: Please indicate if the recorded PBM binding z-score for CGAACGGGGGCATGAGTTGATAGCAAATGCCGAT meets or exceeds 3.
Response given: Met

Data origin, for the record: the supplement of paper PMC6555819
